Tested on: SR leukemia
ASSAY: NCI-60 one-dose screen, 48 h (100 = growth as untreated, 0 = no growth, -100 = all killed)
DETAILS: 10 µM
The panel holds about 83,000 compounds, 20% with a hit somewhere; the sample as a whole holds those more often.
What growth was measured for each of the following?
Please reply with the bare figure in % and do not write the unit itself.

Return reported growth. Input compound: O=C(NC(=S)N1CCN(c2ncnc3c2cnn3-c2ccccc2)CC1)c1ccc(Cl)cc1
13.9

Return reported growth. Input compound: CN1C/C(=C\c2ccc(O)cc2O)c2[o+]c3cc(O)ccc3cc2C1
2.85

Return reported growth. Input compound: CC1(c2ccccc2)NC(=O)N(CC(=O)Nc2ccc(C(=O)/C=C/c3ccc(Cl)cc3)cc2)C1=O (stereo not drawn)
-13.3

Return reported growth. Input compound: Cc1ccc(CNC(=O)Cc2ccc3c(c2)CN(C2CCC(=O)NC2=O)C3=O)cc1 (stereo not drawn)
38.7

Return reported growth. Input compound: COc1ccc(C(=O)/C=C/c2ccc(Cl)c(C(F)(F)F)c2)cc1S(N)(=O)=O
8.87

Return reported growth. Input compound: O=c1[nH]c2ccccc2cc1CSc1ccc(Nc2nccc(-c3ccc4c(c3)OCO4)n2)cc1
81.7

Return reported growth. Input compound: O=C(CSc1nnc(-c2c[nH]c3ccccc23)n1-c1ccccc1)Nc1ccc(C(=O)/C=C/c2ccccc2Cl)cc1
71.6

Return reported growth. Input compound: N#Cc1c(NC(=O)c2ccc(C(F)(F)F)cc2)sc2c1CCC(O)=C2
8.2

Return reported growth. Input compound: COc1ccc(CN2[C@H](C(=O)NCCCCCCC(=O)NO)Cc3c([nH]c4ccccc34)[C@H]2C2CC2)cc1
16

Return reported growth. Input compound: COc1ccc(/C(CSc2nnc(-c3c[nH]c4ccccc34)n2-c2ccccc2)=N/O)cc1
10.9

Return reported growth. Input compound: COc1ccc(C2N(c3ccc(Br)cc3)N=C(C(C)=O)N2[C@H]2[C@H](OC(C)=O)O[C@H](COC(C)=O)[C@@H](OC(C)=O)[C@@H]2OC(C)=O)cc1 (stereo partly drawn)
75.9

Return reported growth. Input compound: C=C1CCC2C3(C)COC(c4ccccc4F)OC3CCC2(C)C1C/C=C1/C(=O)OCC1O (stereo not drawn)
11.6

Return reported growth. Input compound: COc1ccc(-c2cc(C(=O)N=Nc3c(O)[nH]c4ccc(F)cc34)c3ccccc3n2)cc1
22.5

Return reported growth. Input compound: Cc1cccc(-c2nc(Nc3ccccc3C(=O)O)c3ccccc3n2)c1
23

Return reported growth. Input compound: O=C(CSc1nnc(-c2c[nH]c3ccccc23)n1-c1ccccc1)c1ccc(Br)cc1
90.8

Return reported growth. Input compound: O=C(CSc1nnc(-c2c[nH]c3ccccc23)n1-c1ccccc1)Nc1ccc(C(=O)/C=C/c2cccc([N+](=O)[O-])c2)cc1
75.2

Return reported growth. Input compound: Nc1nc(-c2ccccc2)cs1
30

Return reported growth. Input compound: NS(=O)(=O)c1ccc(NC(=O)CSc2ccc(-c3ccccc3)nn2)c(Br)c1
85.9

Return reported growth. Input compound: COc1ccc2[nH]cc(/C=N/Nc3cccc(Cl)n3)c2c1
17.1

Return reported growth. Input compound: CN1C(=O)N(C)C2SC(N/N=C/c3ccccc3F)=NC21 (stereo not drawn)
16.4

Return reported growth. Input compound: Nc1nc(Nc2ccc(Cl)cc2)nn1Cc1cccc(Br)c1
30.6

Return reported growth. Input compound: COc1ccc2c3nc4cc(C)c(C)cc4nc3n(CCN(C)C)c2c1
9.88

Return reported growth. Input compound: Cc1ccc(-c2nc(Nc3ccc(C)c(S(N)(=O)=O)c3)c3ccccc3n2)cc1
3.79

Return reported growth. Input compound: COC1=C[C@]23CCC(=O)N2CCc2cc4c(cc2[C@@H]3[C@@H]1OC(=O)CCCC(C)C)OCO4
18.2

Return reported growth. Input compound: O=C(Cc1ccc2c(c1)CN(C1CCC(=O)NC1=O)C2=O)NCc1cccc2ccccc12 (stereo not drawn)
13.6

Return reported growth. Input compound: CC1(c2ccccc2)NC(=O)N(CC(=O)Nc2ccc(C(=O)/C=C/C=C/c3ccccc3)cc2)C1=O (stereo not drawn)
15.2

Return reported growth. Input compound: COc1cccc(COc2ccc(/C=C3\Oc4cc(O)ccc4C3=O)cc2)c1
21.4

Return reported growth. Input compound: COc1ccc(Nc2nc(N)n(Cc3cccc(Br)c3)n2)cc1
12.6

Return reported growth. Input compound: Cc1ccc(/C=C/C(=O)c2ccc(NC(=O)CSc3nnc(-c4c[nH]c5ccccc45)n3-c3ccccc3)cc2)cc1
72.4

Return reported growth. Input compound: COc1cc2c(cc1OC)/C(=C\c1sc(Nc3ccc(O)cc3)nc1O)C(C(=O)O)=N2
17

Return reported growth. Input compound: Cn1cc(-c2cc(N)n3nc(-c4c[nH]c5ccc(Br)cc45)cc3n2)c2cccnc21
-23.6

Return reported growth. Input compound: COc1ccc(C(=O)NC(=S)N2CCN(c3ncnc4c3cnn4-c3ccccc3)CC2)cc1
12.3

Return reported growth. Input compound: CN1CCO/C1=C(/NC(=O)c1ccc(Cl)cc1)[P+](c1ccccc1)(c1ccccc1)c1ccccc1
80.9

Return reported growth. Input compound: CCOC(=O)N/C(=C1/OCCN1C)[P+](c1ccccc1)(c1ccccc1)c1ccccc1
66.6

Return reported growth. Input compound: Cc1ccc(F)cc1N/C=c1\s/c(=C(\C#N)C(=O)Nc2ccccc2)n(-c2ccccc2)c1=O
75.4

Return reported growth. Input compound: Cc1cc(=O)oc2cc(OCCCCOc3ccc(/C=C/C(=O)Nc4cccc(Cl)c4)cc3)ccc12
55.1

Return reported growth. Input compound: CN1CCc2c(sc3ncnc(N/N=C/c4ccc5ccccc5c4)c23)C1
9.62

Return reported growth. Input compound: OCc1[nH]nc2cc(Nc3ncc4ccc(Br)c(OC5CCC(O)CC5)c4n3)ccc12 (stereo not drawn)
3.06
